FYI, the data here is from patent US20260116991A1.

- TESTED_SYSTEM: biotinylated labeled human GPC3 protein (produced in-house) (human, UniProt P51654 25-559, limits assumed, biotinylated (Dojindo, Cat. No. LK03); sites not stated)
- ASSAY_SUMMARY: ELISA, biotinylated human GPC3 protein
Label T when OD450 at 2.67 nM >= 2 OD450; otherwise F.

The examples below pair each entry with its known result.
>  <BINDER>
hAb003LH1L1a (antibody, human IgG1, V domains shown, Humanized F2.154.1; VH H1 + VL L1a; expressed as human IgG1) VH: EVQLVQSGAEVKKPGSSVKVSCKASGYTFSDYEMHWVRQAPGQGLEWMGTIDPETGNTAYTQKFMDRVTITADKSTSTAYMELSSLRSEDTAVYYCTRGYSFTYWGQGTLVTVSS VL: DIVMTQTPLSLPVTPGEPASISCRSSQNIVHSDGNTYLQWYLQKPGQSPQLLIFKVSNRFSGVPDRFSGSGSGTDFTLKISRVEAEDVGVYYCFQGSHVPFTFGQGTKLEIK

>  <LABEL_VALUE>
T

$$$$
>  <BINDER>
hAb007LH1L1b (antibody, human IgG1, V domains shown, Humanized F3.81.19; VH H1 + VL L1b; expressed as human IgG1) VH: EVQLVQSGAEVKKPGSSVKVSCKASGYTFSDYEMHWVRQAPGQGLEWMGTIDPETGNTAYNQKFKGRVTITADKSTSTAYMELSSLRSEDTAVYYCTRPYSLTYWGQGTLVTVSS VL: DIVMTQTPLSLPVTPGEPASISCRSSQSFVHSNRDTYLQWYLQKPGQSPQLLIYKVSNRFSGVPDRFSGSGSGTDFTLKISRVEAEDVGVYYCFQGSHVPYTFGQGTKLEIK

>  <LABEL_VALUE>
T

$$$$
>  <BINDER>
hAb003LH2L1a (antibody, human IgG1, V domains shown, Humanized F2.154.1; VH H2 + VL L1a; expressed as human IgG1) VH: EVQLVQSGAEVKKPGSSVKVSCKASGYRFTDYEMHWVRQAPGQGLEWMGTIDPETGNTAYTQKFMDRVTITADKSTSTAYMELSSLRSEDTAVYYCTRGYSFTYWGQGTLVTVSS VL: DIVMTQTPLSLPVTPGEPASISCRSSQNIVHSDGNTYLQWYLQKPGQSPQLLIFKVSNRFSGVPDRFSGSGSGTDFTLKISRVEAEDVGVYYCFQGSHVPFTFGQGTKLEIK

>  <LABEL_VALUE>
T

$$$$

Query :: API: above_or_equal(metric=OD450 at 2.67 nM, cutoff=2 OD450) for item hAb001H1L1a (antibody, human IgG1, V domains shown, Humanized F2.169.2; VH H1 + VL L1a; expressed as human IgG1) VH: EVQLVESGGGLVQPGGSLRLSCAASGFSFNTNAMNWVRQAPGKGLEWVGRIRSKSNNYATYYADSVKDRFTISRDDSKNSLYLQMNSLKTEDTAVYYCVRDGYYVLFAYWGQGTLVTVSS VL: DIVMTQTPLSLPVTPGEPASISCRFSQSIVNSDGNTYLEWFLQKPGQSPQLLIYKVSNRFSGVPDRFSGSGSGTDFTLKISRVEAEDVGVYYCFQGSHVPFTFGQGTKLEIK
Result :: T

Query :: API: above_or_equal(metric=OD450 at 2.67 nM, cutoff=2 OD450) for item hAb006LH1L1a (antibody, human IgG1, V domains shown, Humanized F3.38.7; VH H1 + VL L1a; expressed as human IgG1) VH: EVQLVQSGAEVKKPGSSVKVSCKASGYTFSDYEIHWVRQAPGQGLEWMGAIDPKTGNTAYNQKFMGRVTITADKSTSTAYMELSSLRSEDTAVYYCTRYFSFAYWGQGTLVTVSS VL: DIVMTQTPLSLPVTPGEPASISCRSSQTFVHSDGNTYLQWYLQKPGQSPQLLIYKVSNRFSGVPDRFSGSGSGTDFTLKISRVEAEDVGVYYCFQGSHVPYTFGQGTKLEIK
Result :: F
